target: human GLP-1 receptor (hGLP-1R) (Homo sapiens, UniProt P43220); construct: expressed in transfected cells; experiment: GLP-1 receptor assay, method A (CRE-luciferase reporter, BHK cells); assay type: cell-based; settings: method A, absence of HSA; read-out: hGLP-1R Potency, no HSA, EC50
Sequence (P43220 24-463): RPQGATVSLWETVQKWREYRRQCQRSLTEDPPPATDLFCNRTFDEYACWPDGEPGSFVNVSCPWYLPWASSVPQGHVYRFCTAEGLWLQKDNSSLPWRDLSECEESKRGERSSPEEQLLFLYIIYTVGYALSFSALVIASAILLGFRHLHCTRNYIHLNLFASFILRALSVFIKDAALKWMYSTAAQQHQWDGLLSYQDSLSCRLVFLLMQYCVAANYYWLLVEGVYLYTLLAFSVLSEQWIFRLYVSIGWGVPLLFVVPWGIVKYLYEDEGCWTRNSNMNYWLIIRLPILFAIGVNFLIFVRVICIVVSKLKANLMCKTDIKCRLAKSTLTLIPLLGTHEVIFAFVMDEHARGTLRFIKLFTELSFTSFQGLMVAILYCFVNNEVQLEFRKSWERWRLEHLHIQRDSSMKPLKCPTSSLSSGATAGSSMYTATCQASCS
pEC50: −log10 of the molar value. Numbered stars: 1 amine (or outer) side, 2 acyl side, 3 side chain; on linkers, the order of the positions; unused ones are H or OH. Square brackets hold non-standard residues; d marks the D form. Side chains are listed from the residue outwards. * marks the point of attachment. C20 diacid = O=C(O)CCCCCCCCCCCCCCCCCCC(=O)*; C18 diacid = O=C(O)CCCCCCCCCCCCCCCCC(=O)*; γGlu = O=C(O)[C@H](CCC(=O)[*:2])N[*:1]; AEEA = NCCOCCOCC(=O)O; Aib = CC(C)(N)C(=O)O
Quick reference for pEC50 among some substances
readout-label: pEC50

- substance: "Y[Aib]EGTFTSDYSILLEEQAAREFIEWLLAGGPSSGAGQAPGQAPGASHLSTAQTQRLSAK([AEEA-AEEA-γGlu-C18 diacid])LHRLATLPRTETGSGSP-NH2 [compound 55]"
  reported: 10.64
- substance: "Y[Aib]EGTFTSDYSILLEEQAAREFIEWLLAGGPSSGEASHLSTAQTQRLSAELHRLATLPK([AEEA-AEEA-γGlu-C18 diacid])TETGSGSP-NH2 [Compound 81]"
  reported: 10.80
- substance: "H[Aib]HGTFTSDYSILLEEQAAREFIEWLLAGGPSSGAGQAPGQAPGASHLSTAQTQRLSAELHRLK([AEEA-AEEA-γGlu-C18 diacid])TLPRTETGSGSP-NH2 [Compound 91]"
  reported: 11.42
- substance: "Y[Aib]EGTFTSDYSILLEEQAAREFIEWLLAGGPSRGEASHLSTAQTQRLSAELHK([AEEA-AEEA-γGlu-C20 diacid])LATLPRTETGSGSP-NH2 [Compound 94]"
  reported: 10.79
- substance: "Y[Aib]EGTFTSDYSILLEEQAAREFIEWLLAGGPSRGEASELSTAALGRLSAELHK([AEEA-AEEA-γGlu-C18 diacid])LATLPRTETGSGSP-NH2 [Compound 67]"
  reported: 10.81

---

target: human GLP-1 receptor (hGLP-1R) (Homo sapiens); construct: expressed in transfected cells; test: GLP-1 receptor assay, method A (CRE-luciferase reporter, BHK cells); assay type: cell-based; conditions: method A, absence of HSA; read-out: hGLP-1R Potency, no HSA, EC50
pEC50: −log10 of the molar value. Numbered stars: 1 amine (or outer) side, 2 acyl side, 3 side chain; on linkers, the order of the positions; unused ones are H or OH. Square brackets hold non-standard residues; d marks the D form. Side chains are listed from the residue outwards. * marks the point of attachment. C20 diacid = O=C(O)CCCCCCCCCCCCCCCCCCC(=O)*; C18 diacid = O=C(O)CCCCCCCCCCCCCCCCC(=O)*; γGlu = O=C(O)[C@H](CCC(=O)[*:2])N[*:1]; AEEA = NCCOCCOCC(=O)O; Aib = CC(C)(N)C(=O)O

- substance: "H[Aib]HGTFTSDYSILLEEQAAREFIEWLLAGGPSSGEASHLSTAQTQRLSAELHRLATLPK([AEEA-AEEA-γGlu-C18 diacid])TETGSGSP-NH2 [Compound 84]"
  study-target: "human GLP-1 receptor (hGLP-1R) (Homo sapiens)"
  pEC50: 11.48
- substance: "H[Aib]HGTFTSDYSILLEEQAAREFIEWLLAGGPSK([AEEA-AEEA-γGlu-C18 diacid])GEASQLSTAALGRLSAELHHLATLPRTETGSGSP-NH2 [Compound 66]"
  study-target: "human GLP-1 receptor (hGLP-1R) (Homo sapiens)"
  pEC50: 11.28
- substance: "Y[Aib]EGTFTSDYSILLEEQAAREFIEWLLAGGPSRGAPPPSGGGEASHLSTQTQGRLSAELHK([AEEA-AEEA-γGlu-C18 diacid])LATLPRTETGSGSP-NH2 [Compound 72]"
  study-target: "human GLP-1 receptor (hGLP-1R) (Homo sapiens)"
  pEC50: 10.88
- substance: "Y[Aib]EGTFTSDYSILLEEQAAREFIEWLLAGGPSK([AEEA-AEEA-γGlu-C18 diacid])GAPPPSGGGGASELSTAALGRLSAELHRLATLPRTETGSGSP-NH2 [Compound 13]"
  study-target: "human GLP-1 receptor (hGLP-1R) (Homo sapiens)"
  pEC50: 10.42
- substance: "H[Aib]HGTFTSDYSILLEEQAAREFIEWLLAGGPSSGAGQAPGQAPLASHLSTAQTQRLSAELHK([AEEA-AEEA-γGlu-C18 diacid])LATLPRTETGSGSP-NH2 [Compound 93]"
  study-target: "human GLP-1 receptor (hGLP-1R) (Homo sapiens)"
  pEC50: 11.39
- substance: "H[Aib]HGTFTSDYSILLEEQAAREFIEWLLAGGPSRGAPPPSGGGEASELSTAALGRLSAELHK([AEEA-AEEA-γGlu-C18 diacid])LATLPRTETGSGSP-NH2 [Compound 70]"
  study-target: "human GLP-1 receptor (hGLP-1R) (Homo sapiens)"
  pEC50: 11.46
- substance: "H[Aib]HGTFTSDYSILLEEQAAREFIEWLLAGGPSSGALAQTLAQTLASHLSTAQTQRLSAELHK([AEEA-AEEA-γGlu-C18 diacid])LATLPRTETGSGSP-NH2 [Compound 51]"
  study-target: "human GLP-1 receptor (hGLP-1R) (Homo sapiens)"
  pEC50: 11.11
- substance: "Y[Aib]EGTFTSDYSILLEEQAAREFIEWLLAGGPSSGAGQAPGASHLSTAQTQRLSAELHK([AEEA-AEEA-γGlu-C18 diacid])LATLPRTETGSGSP-NH2 [Compound 97]"
  study-target: "human GLP-1 receptor (hGLP-1R) (Homo sapiens)"
  pEC50: 10.79
- substance: "H[Aib]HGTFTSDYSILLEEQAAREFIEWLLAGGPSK([AEEA-AEEA-γGlu-C20 diacid])GAPPPSGGGEASELSTAALGRLSAELHELATLPRTETGSGSP-NH2 [Compound 16]"
  study-target: "human GLP-1 receptor (hGLP-1R) (Homo sapiens)"
  pEC50: 11.56
- substance: "Y[Aib]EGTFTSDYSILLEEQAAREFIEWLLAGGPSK([AEEA-AEEA-γGlu-C18 diacid])GALAQTLGTNEASELSTAALGRLSAELHELATLPRTETGSGSP-NH2 [Compound 23]"
  study-target: "human GLP-1 receptor (hGLP-1R) (Homo sapiens)"
  pEC50: 10.81
- substance: "H[Aib]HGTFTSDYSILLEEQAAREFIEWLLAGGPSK([AEEA-AEEA-γGlu-C18 diacid])GEASQLSTAALGRLSAELHTLATLPRTETGSGSP-NH2 [Compound 63]"
  study-target: "human GLP-1 receptor (hGLP-1R) (Homo sapiens)"
  pEC50: 11.32
